From: PubChem BioAssay (NCI)

Test system: SW-620 colon
Assay: NCI tumour cell line growth inhibition, 48 h; in the data active means GI50 below about 0.43 µM; inactive means the rest
A correct response names exactly one class from 1 (yes) = active, 0 (no) = inactive

>  <COMPOUND>
COc1ccc(/C=C2\SC(=Nc3ccccc3)NC2=O)cc1

>  <ASSIGNED_LABEL>
0 (no)

$$$$
>  <COMPOUND>
Cc1nc2ccccn2c1NC(=O)NNC(=S)Nc1ccc(F)cc1

>  <ASSIGNED_LABEL>
0 (no)

$$$$

Ask: What classification did ClCc1ccccc1Cn1cnc2c(Cl)ncnc21 end up with in this test?
Result: 0 (no)

Ask: What classification did O=C(c1ccccc1)c1c(C(F)(F)F)n([O-])c2cc(C(F)(F)F)ccc2[n+]1=O end up with in this test?
Result: 0 (no)

Ask: What classification did CCC1(OC(=O)CN)C(=O)OCc2c1cc1n(c2=O)Cc2cc3ccccc3nc2-1 (stereo not drawn) end up with in this test?
Result: 1 (yes)

Ask: What classification did Cn1c(-c2ccccc2)c(/C=C/C2=[N+](C)c3ccccc3C2(C)C)c2ccccc21 end up with in this test?
Result: 0 (no)

Ask: What classification did CCCCCC[C@@H](C)NC(=O)c1ccc(Nc2nc3ccccc3c3occc23)cc1 end up with in this test?
Result: 0 (no)

Ask: What classification did Cc1ccc2c(c1)C(=O)c1c-2c(OCCCN(C)C)nc2ccccc12 end up with in this test?
Result: 0 (no)
